assay: chemical genetic growth profiling, strain panel (AID 1159580);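 further: tested at 20 µM; growth read once vehicle control cultures reached saturation at 30 °C; 1 = growth at the plate median or of vehicle wells; lower values mean less growth of the strain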; details: S. cerevisiae deletion strains, growth OD, locus YBR231C, strain swc5, active compounds read low
In all, about 5,500 compounds went through this assay and about 2,000 (36%) were called active. Inconclusive results (about 18%) are left out. The list shows a part of the results.
normalized growth under 1 gets 1, anything at or over 1 gets 0.

IN: Would you kindly verify if normalized growth of COc1ccc(C(=O)c2ccc(O)cc2)c(O)c1O is strictly less than 1?
OUT: 1

IN: NC(=O)N1c2ccccc2C=Cc2ccccc21 ?
OUT: 0

IN: CO[C@@]1(NC(=O)Cc2cccs2)C(=O)N2C(C(=O)O)=C(COC(N)=O)CS[C@@H]21 ?
OUT: 0

IN: NCCc1cc(O)c(O)cc1O ?
OUT: 1

---

test: chemical genetic growth profiling, strain panel (AID 1159580);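 further: tested at 20 µM; growth read once vehicle control cultures reached saturation at 30 °C; 1 = growth at the plate median or of vehicle wells; lower values mean less growth of the strain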; conditions: S. cerevisiae deletion strains, growth OD, locus YLR342W, strain FKS1
Screen size: about 5,500 compounds; about 2,000 (36%) were called active. Another 18% or so got no clear call; they are omitted. Rule as the data show it: active = normalized growth mostly below about 0.91 (no sharp cut-off); inconclusive = no clear call, values can overlap the other calls; inactive = mostly above about 0.92. The list shows a part of the results.
Select the correct class. Options are True for active, False for inactive and nothing else.

Cc1onc(-c2ccccc2)c1C(=O)NC1C(=O)N2[C@@H]1SC(C)(C)[C@@H]2C(=O)O (stereo partly drawn): False
CC1(C)C=Cc2cc3ccc(=O)oc3cc2O1: True
CC1(C)S[C@@H]2[C@H](NC(=O)Cc3ccccc3)C(=O)N2[C@H]1C(=O)O: False

IN: I would be grateful if you could indicate the recorded call for OC(c1cc(C(F)(F)F)nc2c(C(F)(F)F)cccc12)C1CCCCN1 (stereo not drawn) .
OUT: False

IN: CN1CCN(CCCN2c3ccccc3Sc3ccc(C(F)(F)F)cc32)CC1 ?
OUT: True

---

assay: chemical genetic growth profiling, strain panel (AID 1159580);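 further: tested at 20 µM; growth read once vehicle control cultures reached saturation at 30 °C; 1 = growth at the plate median or of vehicle wells; lower values mean less growth of the strain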; conditions: S. cerevisiae deletion strains, growth OD, locus YDR392W, strain spt3, active compounds read low
About 2,000 (36%) of roughly 5,500 compounds were called active. About 18% were inconclusive and are not listed. The list shows a part of the results.
normalized growth under 1 gets Criterion met, anything at or over 1 gets Criterion not met.

IN: Would you kindly verify if normalized growth of O=C(NC1CCCCC1)NC1CCCCC1 is strictly less than 1?
OUT: Criterion met

IN: CN[C@@H]1[C@@H](O[C@H]2O[C@H](CO)[C@@H](N)[C@H](O)[C@H]2O)O[C@H]2C[C@@H](N)[C@H](O[C@H]3[C@H](O)[C@@H](O)[C@H](N)C[C@@H]3N)O[C@@H]2[C@@H]1O ?
OUT: Criterion met

---

experiment: chemical genetic growth profiling, strain panel (AID 1159580);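 further: tested at 20 µM; growth read once vehicle control cultures reached saturation at 30 °C; 1 = growth at the plate median or of vehicle wells; lower values mean less growth of the strain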; settings: S. cerevisiae deletion strains, growth OD, locus YGL167C, strain pmr1, active compounds read low
Hit rate of the full screen: of about 5,500 compounds, about 2,000 (36%) were called active. Not shown: some 18% with an inconclusive outcome. The list shows a part of the results.
Known normalized growth of a selection of compounds
// no unit string in output, number only

CC1(C)C=Cc2cc3ccc(=O)oc3cc2O1: 0.953
Cc1cc(C(C)(C)C)cc(C)c1CC1=NCCN1: 1
CC[C@@H](CO)NC(=O)[C@@H]1C=C2c3cccc4[nH]cc(c34)C[C@H]2N(C)C1: 1.01
CC(=O)OCC1=C(C(=O)O)N2C(=O)[C@@H](NC(=O)CCCC(N)C(=O)O)C2SC1 (some centres not stated): 0.992
OCc1c[nH]c2ccccc12: 0.978

Turning now to a further record.
IN: Suppose we examine the compound NC(=O)NO ; what normalized growth value has been reported?
OUT: 1.02
